Ref: patent US20230348362A1

assay: Apparent pKa of LNP formulations, TNS fluorescence assay; format: physicochemical; settings: LNP cationic lipid/DSPC/cholesterol/DMG-PEG 50/10/38.5/1.5 mol %
PROPERTY NAME: Apparent Pka
Numbers only.

Example entries and their recorded answers appear below.
| COMPOUND | PROPERTY NAME | ASSAY VALUE |
| --- | --- | --- |
| CCCCCCCCC(CCCCCCCC)COC(=O)CCCCCN(CC=C(C)C)CCN(CCCCCC(=O)OCC(CCCCCCCC)CCCCCCCC)C1CCC(O)CC1 (stereo not drawn) [Compound 126] | Apparent Pka | 6.212 |
| CCCCCCCCC(CCCCCC)COC(=O)CCCCCN(CC)CCN(CCO)CCCCC(COC(=O)CCCCCCC)COC(=O)CCCCCCC (stereo not drawn) [Compound 157] | Apparent Pka | 6.674 |

Field: next compound
Q: Query: Apparent Pka; subject: CCCCCCCCC(CCCCCCCC)CNC(=O)CCCCCN(CCO)CCN(CCCCCC(=O)OCC(CCCCCCCC)CCCCCCCC)C1CCCCC1 [Compound 23]
Ans: 6.686

###

experiment: Encapsulation efficiency of lipid nanoparticles, Quant-it Ribogreen RNA assay; type: physicochemical; conditions: LNP of lipid/DSPC/cholesterol/PEG-lipid 50:10:38.5:1.5 encapsulating hEPO mRNA
PROPERTY NAME: Encapsulation Efficiency (%)
Answers are plain numbers, in %.

Sample answers from the record:
| COMPOUND | UNIT TAG | Encapsulation Efficiency |
| --- | --- | --- |
| CCCCCCCCC(CCCCCCCC)COC(=O)CCCCCN(CCO)CCN(CCCCCCOC(=O)C(CCCCCCCC)CCCCCCCC)C1CCC1 | % | 91.88 |
| CCCCCCCCCCCOC(=O)CCCCCN(CCN(CCO)CCCCCC(=O)OCC(CCCCCCCC)CCCCCCCC)C1CC(OC)C1 (stereo not shown) | % | 93.4 |
| CCCCCCCCCOC(=O)CCCCCCCN1CCC(N(CCO)CCCCCCCC(=O)OC(CCCCCCCC)CCCCCCCC)CC1 | % | 93.69 |
| CCCCCCCCCCCOC(=O)CCCCCN(CCN(CCO)CCOCCC(=O)OCC(CCCCCCCC)CCCCCCCC)C1CCC1 | % | 90.35 |
| CCCCCCCCC(CCCCCC)COC(=O)CCCCCN(CCCCN(CCO)CCCCC(COC(=O)CCCCCCC)COC(=O)CCCCCCC)C1CCCCCCC1 (stereo not shown) | % | 84.59 |

Lab note: each compound below needs its Encapsulation Efficiency filled in.
1. CCCCCCCCC(CCCCCC)CNC(=O)CCCCCN(CCCCN(CCO)CCCCC(COC(=O)CCCCCCC)COC(=O)CCCCCCC)C1CCCC1 (stereo not shown)
2. CCCCCCCCC(CCCCCC)COC(=O)CCCCCN(C)CCN(CCO)CCCCC(COC(=O)CCCCCCC)COC(=O)CCCCCCC (stereo not shown)

Ans:
1. 86.33
2. 89.69

###

test: Apparent pKa of LNP formulations, TNS fluorescence assay; type: physicochemical; settings: LNP cationic lipid/DSPC/cholesterol/DMG-PEG 50/10/38.5/1.5 mol %
Provide the recorded Apparent Pka for the entries that follow.
Answers are plain numbers.

Answered cases to consult:
| COMPOUND | ASSAY VALUE |
| --- | --- |
| CCCCCCCCC(CCCCCCCC)COC(=O)CCOCCN(CCO)CCN(CCOCCC(=O)OCC(CCCCCCCC)CCCCCCCC)C1CCC1 [Compound 112] | 6.343 |
| CCCCCCCCC(CCCCCC)COC(=O)CCCCCN(CCO)CCN(CCCCCC(=O)OCC(CCCCCC)CCCCCCCC)C1CCC1 (stereo not shown) [Compound 7] | 6.427 |
| CCCCCCCCC(CCCCCC)CNC(=O)CCCCCCN(CCO)CCN(CCCCC(COC(=O)CCCCCCC)COC(=O)CCCCCCC)C1CCCCC1 (stereo not shown) [Compound 231] | 6.712 |
| CCCCCCCC(=O)OCC(COCCN(CCO)CCN(CCOCC(COC(=O)CCCCCCC)COC(=O)CCCCCCC)C1CCC1)COC(=O)CCCCCCC [Compound 178] | 6.337 |
| CCCCCCCCC(CCCCCC)CNC(=O)CCCCCN(CCCCCO)CCN(CCCCC(COC(=O)CCCCCCC)COC(=O)CCCCCCC)C1CCCCC1 (stereo not shown) [Compound 209] | 6.608 |
| CCCCCCCCC(CCCCCCCC)COC(=O)CCOCCN(CC=C(C)C)CCN(CCO)CCOCCC(=O)OCC(CCCCCCCC)CCCCCCCC [Compound 120] | 6.546 |

Hello, I would appreciate it if you could give Apparent Pka for each entry below.
1. CCCCCCCCCCCOC(=O)CCCCCN(CCN(CCO)CCCCCC(=O)OCC(CCCCCCCCCC)CCCCCCCCCC)C1CCCCC1 [Compound 47]
2. CCCCCCCCCOC(=O)CCCCCCCN1CCC(N(CCO)CCCCCCCC(=O)OC(CCCCCCCC)CCCCCCCC)CC1 [Compound 177]
3. CCCCCCCCCCCOC(=O)CCCCCN(CCN(CCO)CCCCCC(OCCCCCCCC)OCCCCCCCC)C1CCC1 [Compound 200]

Ans:
1: 6.298; 2: 6.668; 3: 6.593

// each compound listed below needs its Apparent Pka
1. CCCCCCCCC(CCCCCC)CNC(=O)CCCCCN(CCO)CCN(CCCCC(COC(=O)CCCCCCC)COC(=O)CCCCCCC)C1CCCCCC1 (stereo not shown) [Compound 143]
2. CCCCCCCCC(=O)OCC(CCCCN(CCO)CCN(CCCCC(COC(=O)CCCCCCCC)COC(=O)CCCCCCCC)C1CCC1)COC(=O)CCCCCCCC [Compound 166]

Ans:
6.687
6.513

Please state, for each entry, its recorded Apparent Pka.
1. CCCCCCCCC(CCCCCC)COC(=O)CCCCCN(CCCCN(CCO)CCCCC(COC(=O)CCCCCCC)COC(=O)CCCCCCC)C1CCCC1 (stereo not shown) [Compound 191]
2. CCCCCCCC(=O)OCC(CCCCN(CCO)CCCCN(CCCCC(COC(=O)CCCCCCC)COC(=O)CCCCCCC)C1CCC1)COC(=O)CCCCCCC [Compound 219]

Ans:
[6.552, 6.327]
